tested on: Plasmodium falciparum; assay: Antimalarial activity against Plasmodium falciparum after 96 hrs by [3H]hypoxanthine uptake; format: functional, organism-based
pIC50: −log10 of the molar value.

>  <Given Smiles>
CC(=O)O[C@@H]1C[C@H]2C(C)(C)C(=O)C=C[C@]2(C)[C@H]2CC[C@@]3(C)[C@H](c4ccoc4)OC(=O)[C@H]4O[C@]43[C@@]21C

>  <pIC50>
6.52

$$$$
